- ASSAY_COMMENT: Protective index, ratio of TD50 for neurotoxicity in ip dosed Swiss mouse to ED50 for anticonvulsant activity in ip dosed scPTZ Swiss mouse model at 0.5 hrs
- Assay type: toxicity, organism-based
- CONDITION_DETAILS: in vivo, read-out: Ratio TD50/ED50
METRIC_NAME: selectivity ratio at 0.5 h
Field format: numeric only.

[[record]]
compound = "CC1CC(=O)N(C(C)C(=O)N2CCN(c3cccc(Cl)c3)CC2)C1=O (configuration not stated)"
measured_number = 2.23


In the following, a different compound is considered.
[in] Give the reported value of selectivity ratio at 0.5 h for this record: CC1CC(=O)N(C(C)C(=O)N2CCN(c3cccc(C(F)(F)F)c3)CC2)C1=O (configuration not stated)
[out] 4.13

====

- ASSAY_COMMENT: Protective index, ratio of TD50 for neurotoxicity in ip dosed Swiss mouse to ED50 for anticonvulsant activity in ip dosed scPTZ Swiss mouse model at 0.25 hrs
- Format: toxicity, organism-based
- CONDITION_DETAILS: in vivo, read-out: Ratio TD50/ED50
METRIC_NAME: selectivity ratio at 0.25 h
Field format: numeric only.

In the examples that follow, each entry is paired with its recorded selectivity ratio at 0.25 h.
[[record]]
compound = "CCC(C(=O)N1CCN(c2cccc(C(F)(F)F)c2)CC1)N1C(=O)CC(C)C1=O (centres undefined)"
measured_number = 1.51

[[record]]
compound = "CC1CC(=O)N(C(C)C(=O)N2CCN(c3cccc(Cl)c3)CC2)C1=O (centres undefined)"
measured_number = 2.3

[[record]]
compound = "CCC1(C)CC(=O)NC1=O (centres undefined) [ETHOSUXIMIDE]"
measured_number = 4.89


In the following, a different compound is considered.
[in] Give the reported value of selectivity ratio at 0.25 h for this record: CC1CC(=O)N(C(C)C(=O)N2CCN(c3cccc(C(F)(F)F)c3)CC2)C1=O (centres undefined)
[out] 4.33

====

- Test system: Mus musculus
- ASSAY_COMMENT: Anticonvulsant activity in Swiss mouse assessed as protection against maximal electroshock-induced seizures at 300 mg/kg, ip pretreated for 0.25 hrs
- Assay type: functional, organism-based
Activity calls are given as the source filed them. The calls are words filed in the database; no cut-off is given here.
Result category, one only: active, inactive

Worked examples follow.
[[record]]
compound = "CC(C(=O)N1CCN(c2ccccc2)CC1)N1C(=O)CC(C)(C)C1=O (stereo not given)"
label_value = "active"

[[record]]
compound = "CC1CC(=O)N(C(C)C(=O)N2CCN(c3cccc(Cl)c3Cl)CC2)C1=O (stereo not given)"
label_value = "inactive"

[[record]]
compound = "CC(C(=O)N1CCN(c2cccc(Cl)c2)CC1)N1C(=O)CC(C)(C)C1=O (stereo not given)"
label_value = "active"


[in] Look up the recorded call for CC1CC(=O)N(C(C)C(=O)N2CCN(c3ccccc3C(F)(F)F)CC2)C1=O (stereo not given) in this test.
[out] active

[in] Look up the recorded call for CC1CC(=O)N(C(C)C(=O)N2CCN(C)CC2)C1=O (stereo not given) in this test.
[out] inactive

====

- Tested on: Mus musculus
- ASSAY_COMMENT: Anticonvulsant activity in Swiss mouse assessed as protection against maximal electroshock-induced seizures at 300 mg/kg, ip pretreated for 2 hrs
- Assay type: functional, organism-based
Activity calls are given as the source filed them. No cut-off for these calls is given here.
Result category, one only: active, inactive

[in] Look up the recorded call for CC(C(=O)N1CCN(C)CC1)N1C(=O)CC(C)(C)C1=O (stereo not given) in this test.
[out] inactive

[in] Look up the recorded call for CC(C(=O)N1CCN(c2ccc(F)cc2)CC1)N1C(=O)CC(C)(C)C1=O (stereo not given) in this test.
[out] inactive

[in] Look up the recorded call for COc1cccc(N2CCN(C(=O)C(C)N3C(=O)CC(C)(C)C3=O)CC2)c1 (stereo not given) in this test.
[out] inactive

[in] Look up the recorded call for CC(C(=O)N1CCN(c2cccc(C(F)(F)F)c2)CC1)N1C(=O)CC(C)(C)C1=O (stereo not given) in this test.
[out] active

[in] Look up the recorded call for CC1CC(=O)N(C(C)C(=O)N2CCN(c3cccc(C(F)(F)F)c3)CC2)C1=O (stereo not given) in this test.
[out] active

====

Below: a set of entries, each annotated with reported ED50.
- System: Mus musculus
- ASSAY_COMMENT: Anticonvulsant activity in ip dosed Swiss mouse assessed as protection against maximal electroshock-induced seizures at 0.25 hrs
- Format: functional
Please reply with the bare figure in mg/kg and do not write the unit itself.

[[record]]
molecule = "Cc1cccc(N2CCN(C(=O)C(C)N3C(=O)CC(C)C3=O)CC2)c1 (stereo not given)"
measured_number = 122


[in] Give the reported value of ED50 for this record: CCC(C(=O)N1CCN(c2cccc(Cl)c2)CC1)N1C(=O)CC(C)C1=O (stereo not given)
[out] 117

[in] Give the reported value of ED50 for this record: CC(C(=O)N1CCN(c2cccc(C(F)(F)F)c2)CC1)N1C(=O)CC(C)(C)C1=O (stereo not given)
[out] 114

====

- ASSAY_COMMENT: Neurotoxicity in ip dosed Swiss mouse seizure model assessed as motor impairment pretreated for 0.25 hrs measured within 60 s by chimney test
- Assay type: toxicity, organism-based
- CONDITION_DETAILS: in vivo
METRIC_NAME: TD50 at 0.25 h

In the examples that follow, each entry is paired with its recorded TD50 at 0.25 h.
[[record]]
compound = "CC1CC(=O)N(C(C)C(=O)N2CCN(c3cccc(C(F)(F)F)c3)CC2)C1=O (configuration not stated)"
metric_name = "TD50 at 0.25 h"
result = "285 mg/kg"

[[record]]
compound = "CCC(C(=O)N1CCN(c2cccc(C(F)(F)F)c2)CC1)N1C(=O)CC(C)C1=O (configuration not stated)"
metric_name = "TD50 at 0.25 h"
result = "164 mg/kg"

[[record]]
compound = "CC1CC(=O)N(C(C)C(=O)N2CCN(c3cccc(Cl)c3)CC2)C1=O (configuration not stated)"
metric_name = "TD50 at 0.25 h"
result = "261 mg/kg"

[[record]]
compound = "CCC(C(=O)N1CCN(c2cccc(Cl)c2)CC1)N1C(=O)CC(C)C1=O (configuration not stated)"
metric_name = "TD50 at 0.25 h"
result = "223 mg/kg"

[[record]]
compound = "CC(C(=O)N1CCN(c2cccc(Cl)c2)CC1)N1C(=O)CC(C)(C)C1=O (configuration not stated)"
metric_name = "TD50 at 0.25 h"
result = "176 mg/kg"

[[record]]
compound = "CC(C(=O)N1CCN(c2cccc(C(F)(F)F)c2)CC1)N1C(=O)CC(C)(C)C1=O (configuration not stated)"
metric_name = "TD50 at 0.25 h"
result = "425 mg/kg"


In the following, a different compound is considered.
[in] Give the reported value of TD50 at 0.25 h for this record: Cc1cccc(N2CCN(C(=O)C(C)N3C(=O)CC(C)C3=O)CC2)c1 (configuration not stated)
[out] 210 mg/kg

====

- ASSAY_COMMENT: Protective index, ratio of TD50 for neurotoxicity in ip dosed Swiss mouse to ED50 for anticonvulsant activity in ip dosed MES Swiss mouse model at 0.5 hrs
- Type: toxicity, organism-based
- CONDITION_DETAILS: in vivo, read-out: Ratio TD50/ED50
METRIC_NAME: selectivity ratio at 0.5 h
Field format: numeric only.

In the examples that follow, each entry is paired with its recorded selectivity ratio at 0.5 h.
[[record]]
compound = "COC[C@@H](NC(C)=O)C(=O)NCc1ccccc1 [LACOSAMIDE]"
measured_number = 3.6

[[record]]
compound = "CC1CC(=O)N(C(C)C(=O)N2CCN(c3cccc(Cl)c3)CC2)C1=O (centres undefined)"
measured_number = 2.74

[[record]]
compound = "CC1CC(=O)N(C(C)C(=O)N2CCN(c3cccc(C(F)(F)F)c3)CC2)C1=O (centres undefined)"
measured_number = 2.85


In the following, a different compound is considered.
[in] Give the reported value of selectivity ratio at 0.5 h for this record: CCC(C(=O)N1CCN(c2cccc(C(F)(F)F)c2)CC1)N1C(=O)CC(C)C1=O (centres undefined)
[out] 2.24

====

Below: a set of entries, each annotated with reported selectivity ratio at 0.5 h.
- ASSAY_COMMENT: Protective index, ratio of TD50 for neurotoxicity in ip dosed Swiss mouse to ED50 for anticonvulsant activity in ip dosed Swiss mouse 6 Hz psychomotor seizure model at 0.5 hrs
- Assay type: toxicity, organism-based
- CONDITION_DETAILS: in vivo, read-out: Ratio TD50/ED50
Field format: numeric only.

[[record]]
compound = "CC1CC(=O)N(C(C)C(=O)N2CCN(c3cccc(Cl)c3)CC2)C1=O (centres undefined)"
measured_number = 11.1

[[record]]
compound = "COC[C@@H](NC(C)=O)C(=O)NCc1ccccc1 [LACOSAMIDE]"
measured_number = 5.26

[[record]]
compound = "CC1CC(=O)N(C(C)C(=O)N2CCN(c3cccc(C(F)(F)F)c3)CC2)C1=O (centres undefined)"
measured_number = 12.7


In the following, a different compound is considered.
[in] Give the reported value of selectivity ratio at 0.5 h for this record: CCC(C(=O)N1CCN(c2cccc(C(F)(F)F)c2)CC1)N1C(=O)CC(C)C1=O (centres undefined)
[out] 4.12
